Test system: BT-549 breast
Test: NCI-60 one-dose screen, 48 h
Conditions: 10 µM unless noted
This is part of a sample that, as a whole, favours compounds with a hit. Of some 83,000 tested, about 20% had one in any assay. The source made the active and inactive calls. The calls were made as follows: active = growth percent below 10; inactive = the rest.
Outcome codes: True for active, False for inactive

{"molecule": "CCN(CC)CCSC(=O)C(O)(c1ccccc1)C1CCCC1 (configuration not stated)", "qualitative_label": "False"}
{"molecule": "O=C(NNc1ccc(-c2ccccc2)nn1)c1ccc(F)cc1", "qualitative_label": "False"}
{"molecule": "O=C1CC(c2ccccc2)Cc2nc3ccc(Br)cc3cc21 (configuration not stated)", "qualitative_label": "True"}
{"molecule": "Cc1cc(N2CCCCCC2)nc(N2CCN(CC(=O)Nc3ccc4c(ccn4Cc4ccccc4)c3)CC2)n1", "qualitative_label": "False"}
{"molecule": "Clc1ccc(N2CCN(CCCN3CCN(c4cccc(Cl)c4)CC3)CC2)cc1", "qualitative_label": "False"}
{"molecule": "Cc1cc(NN=C(c2ccc(O)cc2)c2ccc(O)cc2)c([N+](=O)[O-])cc1[N+](=O)[O-]", "qualitative_label": "False"}
{"molecule": "CNC(=O)c1cc(Oc2cccc3nc(NC(=O)Nc4cc(C(F)(F)F)cc(C(F)(F)F)c4)ccc23)ccn1", "qualitative_label": "False"}

---

Tested on: A498 renal
Test: NCI-60 one-dose screen, 48 h (100 = growth as untreated, 0 = no growth, -100 = all killed)
Settings: 10 µM unless noted
This is part of a sample that, as a whole, favours compounds with a hit. Of some 83,000 tested, about 20% had one in any assay.
Each entry below carries its reported growth.
experimental_readout: growth (%)

{"item_smiles": "Oc1ccc(N=Nc2nccs2)c(O)c1", "experimental_readout": "growth", "endpoint_value": 225}
{"item_smiles": "CCCCCCSc1ncnc2nc[nH]c12", "experimental_readout": "growth", "endpoint_value": 95.2}
{"item_smiles": "C=C1C(=O)O[C@H]2[C@H]1CC/C(COC(=O)NCc1ccc(Cn3c(=O)sn(-c4ccc(Cl)cc4)c3=O)cc1)=C\\CC[C@@]1(C)O[C@@H]21", "experimental_readout": "growth", "endpoint_value": 107}

---

Each entry below carries its reported growth.
Tested on: A498 renal
Assay: NCI-60 one-dose screen, 48 h (100 = growth as untreated, 0 = no growth, -100 = all killed)
Details: 10 µM unless noted
The panel holds about 83,000 compounds, 20% with a hit somewhere; the sample as a whole holds those more often. Calls of active or inactive are those of the source. Rule for the calls: active = growth percent below 10; inactive = the rest.

{"compound": "CCOC(=O)/C(C#N)=C(\\C)CCc1ccccc1", "growth": "77.9% (inactive)"}
{"compound": "COc1ccc(/C=C(/C2=NCCN2)n2ccc3ccccc32)cc1", "growth": "89% (inactive)"}
{"compound": "CCCCCCCCCCCCCC[n+]1cccc(C(N)=O)c1", "growth": "61.1% (inactive)"}
{"compound": "COC(=O)[C@]12CCC(C)(C)C[C@H]1C1=CC[C@@H]3[C@@]4(C)C/C(=C/c5cccnc5)C(=O)C(C)(C)[C@@H]4CC[C@@]3(C)[C@]1(C)CC2", "growth": "-69.8% [100 µM] (active)"}
{"compound": "Cc1ccccc1OC(=O)c1cccc(Cl)c1", "growth": "90.5% (inactive)"}
{"compound": "CCOc1cc(NC(=O)c2ccccc2)c(OCC)cc1N", "growth": "113% (inactive)"}
{"compound": "COc1cc2c(c(Br)c1N)-c1cc(Br)c(N)cc1C2=O", "growth": "61.7% (inactive)"}
{"compound": "Cn1c(=O)c(C#N)c(-c2ccco2)n2c(S(=O)(=O)Cc3ccccc3)nnc12", "growth": "84.8% (inactive)"}
{"compound": "COc1cc(C)cc2oc3oc(=N)c(C(=O)c4ccccc4)cc3c(=O)c12", "growth": "90.3% (inactive)"}
{"compound": "CC1Cc2c(ncnc2-n2cnc3ccccc32)N(C)c2ccccc21 (stereo unspecified)", "growth": "-2.09% (active)"}
{"compound": "Brc1ccc(-c2nnc3c4[nH]ccc4ncn23)cc1", "growth": "70.6% (inactive)"}
{"compound": "c1ccc(-c2nc(N3CCCNCC3)c3nc(-c4ccccc4)oc3n2)cc1", "growth": "69.9% (inactive)"}
{"compound": "CC1(C)CC[C@]2(C(=O)O)CC[C@]3(C)C(=CC[C@@H]4[C@@]5(C)C/C(=C/c6ccco6)C(=O)C(C)(C)[C@@H]5CC[C@]43C)[C@@H]2C1", "growth": "-42.5% [100 µM] (active)"}
{"compound": "COc1ccc(-c2cc(-c3ccccc3)nc(NCCNc3ccnc4cc(Cl)ccc34)n2)cc1", "growth": "5.73% (active)"}
{"compound": "O=C1CC(c2ccc3c(c2)OCO3)Nc2ccccc21 (stereo unspecified)", "growth": "-11.2% (active)"}
{"compound": "Cc1ccc(-c2cc(-c3ccc(C)cc3)nc(NCCNc3ccnc4cc(Cl)ccc34)n2)cc1", "growth": "68.4% (inactive)"}
{"compound": "O=C1COCCN1c1ccc(NCc2cn(Cc3ccccc3)c3ccccc23)cc1", "growth": "-88.4% (active)"}
{"compound": "O=C(CCNCc1ccccc1)c1ccccc1", "growth": "112% (inactive)"}
{"compound": "Cn1cc(-c2noc(-c3cn(C)c4ncc(F)cc34)n2)c2ccccc21", "growth": "62.9% (inactive)"}
{"compound": "CCCCCCNC(=O)Nc1ncnc2c1ncn2-c1ccccc1", "growth": "83.1% (inactive)"}
{"compound": "CC(C)C1=NOC(=O)C1=Cc1cn(-c2cccnc2)nc1-c1ccccc1", "growth": "99.2% (inactive)"}
{"compound": "CC(C)(C)c1cc(C(=O)Nc2ccccc2C(=O)NCCN)cc(C(C)(C)C)c1", "growth": "-11.6% (active)"}
{"compound": "CC(C)C1=NOC(=O)C1=Cc1cn(-c2ccccc2)nc1-c1ccc(Br)cc1", "growth": "57% (inactive)"}
{"compound": "COc1ccc(C2CC(c3ccc4ccccc4c3)=NN2c2nc(O)c(C3=c4cc(OC)ccc4=NC3=O)s2)cc1 (stereo unspecified)", "growth": "-83.2% (active)"}
{"compound": "COC(=O)[C@H](CC(C)C)NC(=O)NC(=O)NC(=O)CI", "growth": "82.8% (inactive)"}
{"compound": "Cc1cc(C)c(S(=O)(=O)/N=c2/n(-c3ccccc3)nc3n2CCN3C2=NCCN2)c(C)c1", "growth": "61.8% (inactive)"}
{"compound": "CCCCCCCCCN(CCCCCCCCC)C(C)C(=O)c1ccc2cc(Br)c3ccccc3c2c1 (stereo unspecified)", "growth": "96.8% (inactive)"}
{"compound": "CC(C)[C@H]1COC(=O)N1[C@@H]1C(=O)N([C@@H](CCC(=O)N2CCN(C3CCCC3)CC2)C(=O)N[C@@H]2CCCc3ccccc32)[C@@H]1/C=C/c1cccc(Cl)c1", "growth": "27.9% (inactive)"}
{"compound": "CC(C)C1=NOC(=O)C1=Cc1cn(-c2ccccc2)nc1-c1ccccc1", "growth": "93.6% (inactive)"}
{"compound": "N#CCCc1c[nH]c2ccccc12", "growth": "103% (inactive)"}
{"compound": "CO[C@H]1CC[C@@]2(C)C(=CC[C@H]3[C@@H]4C[C@H](O)C[C@@]4(C)CC[C@@H]32)C1", "growth": "55.8% (inactive)"}
